src = ChEMBL document CHEMBL1828497

Each entry below carries its recorded log10 of EC50.
Target: UniProtKB P21554
Sequence (P21554 whole entry): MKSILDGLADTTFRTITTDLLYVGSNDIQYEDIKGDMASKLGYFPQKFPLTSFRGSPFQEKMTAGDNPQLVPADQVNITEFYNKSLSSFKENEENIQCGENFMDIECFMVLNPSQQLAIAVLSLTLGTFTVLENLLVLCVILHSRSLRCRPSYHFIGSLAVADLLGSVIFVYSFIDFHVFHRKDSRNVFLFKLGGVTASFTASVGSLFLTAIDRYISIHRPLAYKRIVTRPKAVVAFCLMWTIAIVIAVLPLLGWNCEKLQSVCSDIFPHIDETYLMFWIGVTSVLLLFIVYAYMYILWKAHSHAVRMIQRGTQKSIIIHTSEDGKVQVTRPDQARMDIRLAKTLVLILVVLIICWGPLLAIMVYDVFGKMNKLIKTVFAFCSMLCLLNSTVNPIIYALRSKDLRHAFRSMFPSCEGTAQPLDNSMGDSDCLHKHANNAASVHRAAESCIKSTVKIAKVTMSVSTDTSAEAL
Assay: Agonist activity at human CB1 receptor expressed in CHO cells assessed as stimulation of [3H]-arachidonic acid release
Plainly stated, the numbers are log10 of EC50 given in nM.

Below: 4 compounds and their reported log10 of EC50.
[[record]]
structure_as_smiles = "CCCCCn1cc(C(=O)c2cccc3ccccc23)c2cccnc21"
endpoint_result = 1.50

[[record]]
structure_as_smiles = "CCCCCn1cc(C(=O)c2cccc3ccccc23)c2cnccc21"
endpoint_result = 1.70

[[record]]
structure_as_smiles = "CCCCCn1cc(C(=O)Nc2cccc3ccccc23)c2ccccc21"
endpoint_result = 1.00

[[record]]
structure_as_smiles = "CCCCCn1cc(C(=O)c2cccc3ccccc23)c2ccncc21"
endpoint_result = 2.00


In plain terms, CCCCCn1cc(C(=O)c2cccc3ccccc23)c2ccccc21 has a documented log10 of EC50 of 0.70
